Assay: viability loss in pontine glioma line – cell-based, SU-DIPG-XIII, MIPE4.0, CellTiter-Glo, qHTS, dose response (AID 1347061);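 also: cells exposed to compound for 48 hours before readout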
Details: CellTiter-Glo ATP luminescence
Records with an inconclusive call do not appear. Calls of active or inactive are those of the source. The limit is not given here; nearly all actives have AC50 up to about 37 µM.
Possible outcomes: active, inactive

# molecule, class
records = [
    ("CC1CCC(C(=O)N(c2cc(C#CC(C)(C)C)sc2C(=O)O)C2CCC(O)CC2)CC1 (centres undefined)", "inactive"),
    ("CN(C)C(=O)c1ccc(S(=O)(=O)c2ccc(NC(=O)[C@@](C)(O)C(F)(F)F)c(Cl)c2)cc1", "inactive"),
    ("CCCCCNC(=O)N1CCC(CN(Cc2ccc(Cl)cc2)Cc2ccc([N+](=O)[O-])s2)C1 (centres undefined)", "inactive"),
    ("CCn1c(C(=O)N(C2CC2)C2CC2)cc2c3c(ncn3C)c(Nc3cc(C)n(C)n3)nc21", "inactive"),
    ("CC(C)c1ccc(Cn2ccc3c4c(N)nc(NC5CC5)nc4ccc32)cc1", "active"),
    ("Cc1cn([C@@H]2C[C@@H](O)[C@H](CO)O2)c(=O)[nH]c1=O", "inactive"),
    ("O=c1c2ccccc2nc2n1CCc1c-2[nH]c2ccccc12", "inactive"),
    ("Nc1ccn([C@H]2CS[C@@H](CO)O2)c(=O)n1", "inactive"),
    ("Cc1nc(N)ncc1-c1nc(N2CCOCC2)c2sc(C(C)(C)O)cc2n1", "active"),
    ("COc1nccc(-c2c(-c3ccc(F)cc3)ncn2C2CCNCC2)n1", "inactive"),
    ("Cc1c(Cn2c(C)nc3c(C(=O)O)cc(N4CCOCC4)cc32)cccc1C(F)(F)F", "inactive"),
    ("CO[C@H]1C[C@@H]2CC[C@@H](C)[C@@](O)(O2)C(=O)C(=O)N2CCCC[C@H]2C(=O)O[C@H]([C@H](C)C[C@@H]2CC[C@@H](OP(C)(C)=O)[C@H](OC)C2)CC(=O)[C@H](C)/C=C(\\C)[C@@H](O)[C@@H](OC)C(=O)[C@H](C)C[C@H](C)/C=C/C=C/C=C/1C", "inactive"),
    ("O=c1cc(-c2ccc(O)c(O)c2)oc2cc(O)cc(O)c12", "inactive"),
    ("C=C1C(=O)[C@@]23C(CC[C@@H]1[C@H]2O)[C@@]12CO[C@]3(O)[C@@H](O)[C@@H]1C(C)(C)CC[C@@H]2O (some centres undefined)", "active"),
]

====

Test: CRL1545 cell growth, single agent and combined, cisplatin and BGB IC20 combos (AID 1671464);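 also: cells exposed to compound for 96 hours before readout; 0% = vehicle DMSO and 100% = high DMSO killing control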
Conditions: CRL1545 osteosarcoma cells, at 0.5 µM, stronger effect = higher value
Measured inhibition of individual entries
readout_label: inhibition (%)

# molecule, readout_label, reported_measurement
records = [
    ("N=C1CCCN1Cc1[nH]c(=O)[nH]c(=O)c1Cl", "inhibition", 26.4),
    ("Nc1nc2n[nH]nc2c(=O)[nH]1", "inhibition", -20.1),
    ("CC(=O)Nc1ccc(C(=O)Nc2ccccc2N)cc1", "inhibition", 35.2),
    ("O=c1cc(N2CCOCC2)oc2c(-c3cccc4c3sc3ccccc34)cccc12", "inhibition", 17.1),
    ("COc1ccc(C(=O)C2CCN(CC(=O)N(Cc3nc4c(c(=O)[nH]3)COCC4)CC3CC3)CC2)cc1", "inhibition", 9.43),
    ("O=C(CCCCCCNC(=O)c1cnc(N(c2ccccc2)c2ccccc2Cl)nc1)NO", "inhibition", 32.3),
    ("COc1cc2ncnc(-n3nc(-c4ccccn4)nc3N)c2cc1OC", "inhibition", -59.7),
    ("NC1CCC(N[C@@H]2C[C@H]2c2ccccc2)CC1 (stereo not given in full)", "inhibition", -40.7),
    ("Cc1ccc([N+](=O)[O-])cc1S(=O)(=O)N(C)/N=C/c1cnc2ccc(Br)cn12", "inhibition", 96.9),
    ("O=C(/C=C/c1ccc(CN(CCO)CCc2c[nH]c3ccccc23)cc1)NO", "inhibition", 87.1),
    ("O=c1cc(N2CCOCC2)oc2c1ccc1ccccc12", "inhibition", 11.6),
    ("CC(=O)[C@]1(N)Cc2c(O)c3c(c(O)c2[C@@H](O[C@H]2C[C@H](O)[C@H](O)CO2)C1)C(=O)c1ccccc1C3=O", "inhibition", 20),
    ("CS(=O)(=O)c1ccc(-c2nnc(/C=C/c3nnc(-c4ccc(C#N)cc4)o3)n2-c2ccccc2Cl)nc1", "inhibition", -40.3),
    ("Nc1ncnc2c1c(-c1cnc3[nH]ccc3c1)nn2C1CCCC1", "inhibition", -8.52),
    ("Nc1ccc(-c2ccc3ncc4ccc(=O)n(-c5cccc(C(F)(F)F)c5)c4c3c2)cn1", "inhibition", 79.5),
    ("C=C1[C@H](CO)[C@@H](O)C[C@@H]1n1cnc2c(=O)[nH]c(N)nc21", "inhibition", -6.46),
    ("C[C@]12CCCN1CC1=NNC(=O)c3cc(F)cc4[nH]c2c1c34", "inhibition", 7.98),
    ("CC(C)OC(=O)[C@H](C)N[P@](=O)(OC[C@H]1O[C@@H](n2ccc(=O)[nH]c2=O)[C@](C)(F)[C@@H]1O)Oc1ccccc1", "inhibition", 22.4),
    ("O=C(/C=C/c1cccc(S(=O)(=O)Nc2ccccc2)c1)NO", "inhibition", 90.5),
    ("COc1ccc(C(=O)CC2(O)C(=O)Nc3c(Cl)ccc(Cl)c32)cc1 (stereo not given)", "inhibition", 0.14),
]

====

Test: viability loss with induced miR-34 in A549 – imaging, A549 dox-inducible miR-34, nuclei and caspase counts, primary screen (AID 1347080)
Settings: A549 miR-34 inducible, Hoechst nuclei count, 48 h; measured here: relative caspase fold change +Dox/-Dox
Recorded measurements of fold change, one per entry

# compound, fold change
rows = [
    ("Cc1c[nH]c(=O)n(CCCN2CCN(c3ccccc3OCC(F)(F)F)CC2)c1=O", 0.729),
    ("COc1ccc(/C=C/c2cc(O)cc(O)c2)cc1O", 0.703),
    ("c1ccc(C(OC2CCN(CCCc3nn[nH]n3)CC2)c2ccccc2)cc1", 1.12),
    ("Cc1cc(C(=O)NOCCO)c(Nc2ccc(I)cc2F)n(C)c1=O", 0.434),
    ("CCCCC[C@H](O)/C=C/[C@@H]1[C@@H](C/C=C\\CCCC(=O)N(CC)CC)[C@@H](O)C[C@H]1O", 0.858),
    ("O=C(O)CCCCCCCCCCCNC(=O)NC1CCCCC1", 0.896),
    ("CCCCC[C@H](O)/C=C/[C@@H]1[C@@H](C/C=C\\CCCC(=O)N(C)C)[C@@H](O)C[C@H]1O", 1.13),
    ("C/C(O)=C1/C(=O)[C@@H]2[C@H]3c4c[nH]c5cccc(c45)C[C@H]3C(C)(C)N2C1=O", 1.54),
    ("O=C(O)c1ccc(/C=C2/SC(=S)N(c3cccc(C(F)(F)F)c3)C2=O)cc1", 1.71),
    ("CCn1c(=O)[nH]c2ccccc21", 1.07),
    ("O=Nc1ccc(O)c2ncccc12", 1.32),
    ("CCCCCC(=O)CC[C@H]1C=CC(=O)[C@@H]1C/C=C\\CCCC(=O)O", 1.77),
    ("Clc1ccc(C2(c3ccc(-c4cn[nH]c4)cc3)CCNCC2)cc1", 1.06),
    ("CCCCCCCCCCCCCCCCOC[C@@H](O)COP(=O)(O)O", 0.298),
    ("CCCC[C@H](C)C[C@H](O)/C=C/[C@H]1[C@H](O)CC(=O)[C@@H]1CCCCC(CC(=O)O)OC (stereo partly specified)", 0.824),
    ("CCCCCCCC/C=C\\CCCCCCCCCCCC(=O)O", 0.826),
    ("CCCCC[C@@](C)(O)/C=C/[C@H]1[C@H](O)CC(=O)[C@@H]1C/C=C\\CCCC(=O)O", 1.07),
    ("COc1ccccc1C1(O)CCN(CCCn2c3ccccc3c3ccccc32)CC1", 1.55),
    ("COc1ccc(C2=N[C@@H](c3ccc(Cl)cc3)[C@@H](c3ccc(Cl)cc3)N2C(=O)N2CCNC(=O)C2)c(OC(C)C)c1", 0.974),
    ("N[C@@H](Cc1ccc(O)c([N+](=O)[O-])c1)C(=O)O", 1.05),
    ("CC(C)n1nc(-c2cc3cc(O)ccc3[nH]2)c2c(N)ncnc21", 1.11),
    ("NC(=NCCc1ccc(I)cc1)SCCCC1CNCN1 (stereo unspecified)", 0.754),
    ("CC(Sc1nc2ccccc2[nH]1)C(=O)N/N=C/c1cc(Br)ccc1O (stereo unspecified)", 1.43),
    ("CCOC(=O)/C=C/[C@H](CC(C)C)NC(=O)[C@H](CO)NC(=O)[C@@H](NC(=O)c1cccc(O)c1C)C(C)C", 0.781),
    ("CC(C)(C)C(=O)Nc1ccccc1", 1.18),
    ("C=CC(=O)Nc1ccc2ncnc(Nc3cccc(Br)c3)c2c1", 0.865),
]
